The origin of these recorded values is patent US12246076B2.

method.notes: Ex vivo biodistribution in PC-3 tumor-bearing mice
protocol.conditions: male, NOD.Cg-Rag1tm1Mom Il2rgtm1Wjl/SzJ (NRG), mouse, tumor and kidney, iv, total radioactivity, Tumor/kidney Mean, uptake ratio, 1 h post-injection, n = 4
measured.metric: tissue to tissue ratio at 1 h
When you answer, write just the number.

Ask: Given the compound CC(C)C[C@@H](CN1CSC[C@H]1C(N)=O)NC(=O)[C@H](Cc1cnc[nH]1)NC(=O)CN(C)C(=O)[C@@H](NC(=O)[C@H](C)NC(=O)[C@H](Cc1c[nH]c2ccccc12)NC(=O)[C@H](CCC(N)=O)NC(=O)[C@@H](Cc1ccccc1)NC(=O)CN1CCC(NC(=O)CN2CCN(CC(=O)O)CCN(CC(=O)O)CCN(CC(=O)O)CC2)CC1)C(C)C [^68Ga-LW01090, metal not drawn] , what is its reported tissue to tissue ratio at 1 h?
Result: 4.48
